src = the Human Domainome abundance scans (Beltran et al. 2025)

B1: Membrane-associated guanylate kinase, WW and PDZ domain-containing protein 2, residues 601 to 682; numbered along this chain, Q86UL8 (parent)
chain: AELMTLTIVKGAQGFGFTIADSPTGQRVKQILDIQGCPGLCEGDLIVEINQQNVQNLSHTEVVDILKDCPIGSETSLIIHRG

variants of: B1; assay: abundance fitness (aPCA) (normalised: wild type 0, dead -1); higher = more abundant; growth selection in yeast, the domain comes from the species named; conditions: Homo sapiens
I would appreciate it if you labelled entries class 1 when abundance fitness is -0.09 or higher, otherwise class 0.

Below are worked cases with known answers.
{"variant-label": "P70D", "label-class": "class 1"}
{"variant-label": "N53Q", "label-class": "class 1"}
{"variant-label": "L32A", "label-class": "class 0"}

Read the next record carefully.
Could you please find out whether `D33K` has abundance fitness that meets -0.09 or exceeds it?
class 0
